tested on: HIV(II) virus; assay: Test B (XTT), MT4 cells infected with HIV(II); format: cell-based; conditions: Human immunodeficiency virus 1, MT4, Test B; 100 µg/ml
Tick satisfied if inhibition at 100 µg/mL is 40% or greater. Tick not satisfied if inhibition at 100 µg/mL is less than 40%.

[[record]]
smiles = "Cc1ccnc(NC(=S)NCCc2ccccc2)n1"
label_value = "satisfied"

[[record]]
smiles = "Cc1nc(NC(=S)NCCc2ccccc2)sc1C"
label_value = "satisfied"

[[record]]
smiles = "S=C(NCCc1ccccc1)Nc1nc2ccc(Cl)cc2s1"
label_value = "not satisfied"

[[record]]
smiles = "S=C(NCCc1ccccc1)Nc1nncs1"
label_value = "satisfied"

[[record]]
smiles = "CCOc1ccccc1CCNC(=S)Nc1nccs1"
label_value = "satisfied"

[[record]]
smiles = "S=C(NCCc1ccccc1)Nc1nc2c(Cl)cccc2s1"
label_value = "not satisfied"

[[record]]
smiles = "S=C(NCCc1ccccc1)Nc1nc2ccccc2s1"
label_value = "satisfied"

[[record]]
smiles = "Fc1ccc2nc(NC(=S)NCCc3ccccc3)sc2c1"
label_value = "satisfied"

[[record]]
smiles = "FC(F)(F)c1csc(NC(=S)NCCc2ccccc2)n1"
label_value = "not satisfied"

[[record]]
smiles = "N#Cc1csc(NC(=S)NCCc2ccccc2)n1"
label_value = "not satisfied"


====

tested on: SIV virus; test: Test C (XTT), MT4 cells infected with SIV; type: cell-based; conditions: Simian immunodeficiency virus, MT4, Test C; 1 µg/ml
Property: inhibition at 1 µg/mL; scope: individual compounds
endpoint_label: inhibition at 1 µg/mL (%)

[[record]]
smiles = "CCOc1ccccc1CCNC(=S)Nc1nccs1"
tgt = "SIV virus"
numeric_result = 0

[[record]]
smiles = "FC(F)(F)c1csc(NC(=S)NCCc2ccccc2)n1"
tgt = "SIV virus"
numeric_result = 11

[[record]]
smiles = "S=C(NCCc1ccccc1)Nc1nc2ccccc2s1"
tgt = "SIV virus"
numeric_result = 0

[[record]]
smiles = "S=C(NCCc1ccccc1)Nc1nnc[nH]1"
tgt = "SIV virus"
numeric_result = 5

[[record]]
smiles = "Fc1ccc2nc(NC(=S)NCCc3ccccc3)sc2c1"
tgt = "SIV virus"
numeric_result = 2

[[record]]
smiles = "S=C(NCCc1ccccc1)Nc1nncs1"
tgt = "SIV virus"
numeric_result = 0

[[record]]
smiles = "S=C(NCCc1ccccc1)Nc1nc2ccc(Cl)cc2s1"
tgt = "SIV virus"
numeric_result = 0

[[record]]
smiles = "S=C(NCCc1ccccc1)Nc1nc2c(Cl)cccc2s1"
tgt = "SIV virus"
numeric_result = 0

[[record]]
smiles = "N#Cc1csc(NC(=S)NCCc2ccccc2)n1"
tgt = "SIV virus"
numeric_result = 5

[[record]]
smiles = "S=C(NCCc1ccccc1)Nc1cnccn1"
tgt = "SIV virus"
numeric_result = 2

[[record]]
smiles = "Cc1ccnc(NC(=S)NCCc2ccccc2)n1"
tgt = "SIV virus"
numeric_result = 0

[[record]]
smiles = "Cc1nc(NC(=S)NCCc2ccccc2)sc1C"
tgt = "SIV virus"
numeric_result = 0


====

system: HIV(II) virus; experiment: Test B (XTT), MT4 cells infected with HIV(II); assay type: cell-based; conditions: Human immunodeficiency virus 1, MT4, Test B; 10 µg/ml
Property: inhibition at 10 µg/mL; scope: individual molecules
endpoint_label: inhibition at 10 µg/mL (%)

[[record]]
smiles = "CCOc1ccccc1CCNC(=S)Nc1nccs1"
numeric_result = 91

[[record]]
smiles = "S=C(NCCc1ccccc1)Nc1nc2ccc(Cl)cc2s1"
numeric_result = 67

[[record]]
smiles = "S=C(NCCc1ccccc1)Nc1nc2ccccc2s1"
numeric_result = 100


====

Property: inhibition at 10 µg/mL; scope: individual compounds
tested on: HIV-2; experiment: Test F (HIV-2 RT), RT activity in supernatant of infected MT-4/H9 cells; type: cell-based; conditions: Human immunodeficiency virus 2, H9, Test F; 10 µg/ml
endpoint_label: inhibition at 10 µg/mL (%)

[[record]]
compound = "Fc1ccc2nc(NC(=S)NCCc3ccccc3)sc2c1"
uom = "%"
numeric_result = 62

[[record]]
compound = "S=C(NCCc1ccccc1)Nc1nccs1 [the 1st table, row 1]"
uom = "%"
numeric_result = 57

[[record]]
compound = "FC(F)(F)c1csc(NC(=S)NCCc2ccccc2)n1"
uom = "%"
numeric_result = 98

[[record]]
compound = "Cc1nc(NC(=S)NCCc2ccccc2)sc1C"
uom = "%"
numeric_result = 61

[[record]]
compound = "S=C(NCCc1ccccc1)Nc1nc2ccccc2s1"
uom = "%"
numeric_result = 84

[[record]]
compound = "S=C(NCCc1ccccc1)Nc1nc2c(Cl)cccc2s1"
uom = "%"
numeric_result = 72

[[record]]
compound = "N#Cc1csc(NC(=S)NCCc2ccccc2)n1"
uom = "%"
numeric_result = 94

[[record]]
compound = "S=C(NCCc1ccccc1)Nc1nc2ccc(Cl)cc2s1"
uom = "%"
numeric_result = 79


====

system: HIV virus; assay: Test A (XTT), MT4 cells infected with HIV; type: cell-based; conditions: Human immunodeficiency virus 1, MT4, Test A; 1 µg/ml
Property: inhibition at 1 µg/mL; scope: individual molecules
endpoint_label: inhibition at 1 µg/mL (%)

[[record]]
smiles = "Cc1ccnc(NC(=S)NCCc2ccccc2)n1"
tgt = "HIV virus"
numeric_result = 42

[[record]]
smiles = "S=C(NCCc1ccccc1)NCc1ccco1"
tgt = "HIV virus"
numeric_result = 10

[[record]]
smiles = "CCOc1ccccc1CCNC(=S)Nc1nccs1"
tgt = "HIV virus"
numeric_result = 96

[[record]]
smiles = "S=C(NCCc1ccccc1)Nc1ccccc1Cl"
tgt = "HIV virus"
numeric_result = 0

[[record]]
smiles = "S=C(NCCc1ccccc1)Nc1nncs1"
tgt = "HIV virus"
numeric_result = 100

[[record]]
smiles = "Fc1ccc(NC(=S)NCCc2ccccc2)cc1"
tgt = "HIV virus"
numeric_result = 5

[[record]]
smiles = "S=C(NCCc1ccccc1)Nc1cc[nH]n1"
tgt = "HIV virus"
numeric_result = 0

[[record]]
smiles = "S=C(NCCc1ccccc1)N1CCOCC1"
tgt = "HIV virus"
numeric_result = 13

[[record]]
smiles = "S=C(NCCc1ccccc1)Nc1nc(-c2ccncc2)cs1"
tgt = "HIV virus"
numeric_result = 32

[[record]]
smiles = "S=C(NCCc1ccccc1)Nc1nc2c(Cl)cccc2s1"
tgt = "HIV virus"
numeric_result = 4

[[record]]
smiles = "S=C(NCCc1ccccc1)Nc1cnccn1"
tgt = "HIV virus"
numeric_result = 4

[[record]]
smiles = "Fc1cccc(Cl)c1CCNC(=S)Nc1nccs1"
tgt = "HIV virus"
numeric_result = 100

[[record]]
smiles = "S=C(NCCc1ccccc1)Nc1nc(-c2ccc(Br)cc2)cs1"
tgt = "HIV virus"
numeric_result = 0

[[record]]
smiles = "S=C(NCCc1ccccc1)Nc1ccc(Cl)cc1"
tgt = "HIV virus"
numeric_result = 17

[[record]]
smiles = "S=C(NCCc1ccccc1)N1CCCCC1"
tgt = "HIV virus"
numeric_result = 0

[[record]]
smiles = "S=C(NCCc1ccccc1)Nc1nc(-c2ccc(Cl)cc2)cs1"
tgt = "HIV virus"
numeric_result = 0

[[record]]
smiles = "N#Cc1csc(NC(=S)NCCc2ccccc2)n1"
tgt = "HIV virus"
numeric_result = 51

[[record]]
smiles = "Cc1cccc2sc(NC(=S)NCCc3ccccc3)nc12"
tgt = "HIV virus"
numeric_result = 8

[[record]]
smiles = "CCOc1ccc2nc(NC(=S)NCCc3ccccc3)sc2c1"
tgt = "HIV virus"
numeric_result = 0

[[record]]
smiles = "CCCCOC(=O)c1ccc(NC(=S)NCCc2ccccc2)cc1"
tgt = "HIV virus"
numeric_result = 0

[[record]]
smiles = "NS(=O)(=O)c1ccc(NC(=S)NCCc2ccccc2)cc1"
tgt = "HIV virus"
numeric_result = 0

[[record]]
smiles = "CCCCCCCCCCCCCCc1sc(NC(=S)NCCc2ccccc2)nc1-c1ccc(Cl)cc1"
tgt = "HIV virus"
numeric_result = 0

[[record]]
smiles = "S=C(NCCc1ccccc1)Nc1ccccc1"
tgt = "HIV virus"
numeric_result = 0

[[record]]
smiles = "S=C(NCCc1ccccc1)Nc1ccccn1"
tgt = "HIV virus"
numeric_result = 0

[[record]]
smiles = "CC(C)(C)c1csc(NC(=S)NCCc2ccccc2)n1"
tgt = "HIV virus"
numeric_result = 0

[[record]]
smiles = "S=C(NCCc1ccccc1)Nc1nc2ccc(Cl)cc2s1"
tgt = "HIV virus"
numeric_result = 0

[[record]]
smiles = "S=C(NCCc1ccccc1)N1CCCc2ccccc21"
tgt = "HIV virus"
numeric_result = 0

[[record]]
smiles = "S=C(NCCc1ccccc1)Nc1nnc[nH]1"
tgt = "HIV virus"
numeric_result = 11

[[record]]
smiles = "S=C(NCCc1ccccc1)Nc1ncccn1"
tgt = "HIV virus"
numeric_result = 0

[[record]]
smiles = "S=C(NCCc1ccccc1)Nc1ncco1"
tgt = "HIV virus"
numeric_result = 0

[[record]]
smiles = "CN1CCN(C(=S)NCCc2ccccc2)CC1"
tgt = "HIV virus"
numeric_result = 0

[[record]]
smiles = "S=C(NCCc1ccccc1)Nc1nc2ccccc2s1"
tgt = "HIV virus"
numeric_result = 63

[[record]]
smiles = "COC(=O)C(=O)c1csc(NC(=S)NCCc2ccccc2)n1"
tgt = "HIV virus"
numeric_result = 0

[[record]]
smiles = "S=C(NCCc1ccccc1)Nc1cnc2ccccc2c1"
tgt = "HIV virus"
numeric_result = 0

[[record]]
smiles = "Cc1nnc(NC(=S)NCCc2ccccc2)s1"
tgt = "HIV virus"
numeric_result = 3

[[record]]
smiles = "CCc1nnc(NC(=S)NCCc2ccccc2)s1"
tgt = "HIV virus"
numeric_result = 0

